Below, each entry is listed with its recorded RALB.
# Species on record: Rattus norvegicus
# RUN_DESCRIPTION: Open TG-GATES - Regimen: Single
# Type: toxicity, organism-based, Sprague-Dawley
# Parameters: regimen Single, gender Male, age 6 weeks
# TEST_CONTEXT: in vivo, po, 0 mg/kg, 24 h, tissue Plasma, route gavage, dose level Control
Use g/dL as the unit, but write only the number.

Some entries whose results are on file:
| COMPOUND | UNIT_ABBREVIATION | RALB |
| --- | --- | --- |
| COc1ccc([C@@H]2Sc3ccccc3N(CCN(C)C)C(=O)[C@@H]2OC(C)=O)cc1 | g/dL | 2.6 |
| O=c1ccc2ccccc2o1 | g/dL | 3.7 |
| NS(=O)(=O)c1cc(C(=O)O)c(NCc2ccco2)cc1Cl [FUROSEMIDE] | g/dL | 2.6 |
| CN(C)CCCN1c2ccccc2Sc2ccc(Cl)cc21 | g/dL | 3.4 |

Item: `COc1cc2ncnc(Nc3ccc(F)c(Cl)c3)c2cc1OCCCN1CCOCC1` | RALB: 4.2

Lab book: RALB of `CCN(CC)C(=S)SSC(=S)N(CC)CC` noted as 3

Entry CCCCNC(=O)NS(=O)(=O)c1ccc(C)cc1 [TOLBUTAMIDE] , RALB reported as 2.6

Quick note, RALB for `C=C[C@H]1C[N@@]2CC[C@H]1C[C@@H]2[C@@H](O)c1ccnc2ccc(OC)cc12` landed at 3

Lab book: RALB of CC(S)C(=O)NCC(=O)O (stereo not given) noted as 2.8

The compound listed as `CCO` has a reported RALB of 4

Record `CC(=O)[C@@]1(O)CC[C@H]2[C@@H]3C=C(Cl)C4=CC(=O)CC[C@]4(C)[C@H]3CC[C@@]21C` , field RALB: 3

Form field RALB, entry `O=C(O)c1ccccc1Nc1ccccc1` : 2.7

According to the records, this compound `Nc1ccc(Cc2ccc(N)cc2)cc1` displays RALB of 2.6

Sure, the documented RALB for `CN(C/C=C/C#CC(C)(C)C)Cc1cccc2ccccc12` is 3.5

Briefly, RALB measured for CN(CCOc1ccc(CC2SC(=O)NC2=O)cc1)c1ccccn1.O=C(O)/C=C\C(=O)O (stereo not given) [ROSIGLITAZONE MALEATE] : 3.9
